# Target or test system: Kir4.1 (Homo sapiens, UniProt P78508)
# Construct: host or cells: CHO-K1
# Sequence (P78508 1-379): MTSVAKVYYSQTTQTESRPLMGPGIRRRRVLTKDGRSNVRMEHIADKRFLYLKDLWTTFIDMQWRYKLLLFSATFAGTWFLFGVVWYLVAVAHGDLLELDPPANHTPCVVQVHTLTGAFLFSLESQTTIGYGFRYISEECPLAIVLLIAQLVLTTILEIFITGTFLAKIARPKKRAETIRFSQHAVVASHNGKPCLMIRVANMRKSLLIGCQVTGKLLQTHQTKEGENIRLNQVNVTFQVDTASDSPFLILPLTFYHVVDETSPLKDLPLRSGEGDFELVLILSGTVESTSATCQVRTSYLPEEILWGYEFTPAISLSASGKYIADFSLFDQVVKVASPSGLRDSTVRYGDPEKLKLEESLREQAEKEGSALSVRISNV
# Method: Whole-cell patch clamp, Kir4.1 currents in transfected CHO-K1 cells
# Type: cell-based
# Run parameters: CHO-K1, 0.5 μM; +50 mV; read-out: Kir4.1 Inhibition ± SD (%) at 0.5 μM, +50 mV
Reported metric: inhibition at 0.5 µM

1) c1ccc2c(c1)ccc1[nH]c3ccc(Nc4ccnc(NCCCN5CCOCC5)n4)cc3c12 | 39.5%
2) CC1CCN(CCCNc2nccc(Nc3ccc4oc5ccccc5c4c3)n2)CC1 | 21.4%
3) c1ccc2c(c1)oc1ccc(Nc3ccnc(NCCCN4CCCCC4)n3)cc12 | 74.9%
4) c1ccc2c(c1)oc1ccc(Nc3ccnc(NCCCN4CCCCCC4)n3)cc12 | 56%
5) c1ccc2c(c1)oc1ccc(Nc3ccnc(NCCCN4CCOCC4)n3)cc12 | 82.8%
6) CC1(C)C2CN(CCCNc3nccc(Nc4ccc5oc6ccccc6c5c4)n3)CC21 (centres unmarked) | -0.92%
7) c1ccc2c(c1)oc1ccc(Nc3ccnc(NCCCN4CCOCC4)c3)cc12 | 49.6%
8) CCn1c2ccccc2c2cc(Nc3ccnc(NCCCN4CCOCC4)n3)ccc21 [EHop-016, reference compound] | 17.2%
